Tested on: PCI-30 (Head and Neck Carcinoma)
protocol_summary: combination Emax (second highest fraction inhibited in the dose matrix, 72 h); higher = more inhibition; extreme values may be limits of the assay
Entries and their combination Emax
The response must contain the number and no unit.

A selection of reference data follows.
>>> measured_number("CN(CCO)CC[C@H](CSc1ccccc1)Nc1ccc(S(=O)(=O)NC(=O)c2ccc(N3CCC([C@@H](O)c4ccccc4-c4ccc(Cl)cc4)CC3)cc2)cc1S(=O)(=O)C(F)(F)F [AZD4320] + C=CCn1c(=O)c2cnc(Nc3ccc(N4CCN(C)CC4)cc3)nc2n1-c1cccc(C(C)(C)O)n1 [AZD1775] (first compound max 1 µM, partner max 1 µM)")
0.323
>>> measured_number("O=C(c1cc(Cc2n[nH]c(=O)c3ccccc23)ccc1F)N1CCN(C(=O)C2CC2)CC1 [Olaparib] + CC1(C)CCC(CN2CCN(c3ccc(C(=O)NS(=O)(=O)c4ccc(NCC5CCOCC5)c([N+](=O)[O-])c4)c(Oc4cnc5[nH]ccc5c4)c3)CC2)=C(c2ccc(Cl)cc2)C1 [Venetoclax] (first compound max 10 µM, 7x7, partner max 1 µM)")
0.173

Now look at this entry.
Consider the compound shown here: CC1(C)CCC(CN2CCN(c3ccc(C(=O)NS(=O)(=O)c4ccc(NCC5CCOCC5)c([N+](=O)[O-])c4)c(Oc4cnc5[nH]ccc5c4)c3)CC2)=C(c2ccc(Cl)cc2)C1 [Venetoclax] + CCN(CCO)CCCOc1ccc2c(Nc3cc(CC(=O)Nc4cccc(F)c4)[nH]n3)ncnc2c1 [AZD2811] (first compound max 1 µM, 7x7, partner max 1 µM) What is its recorded combination Emax? 0.229

* * *

Tested on: K5 (Thyroid Gland Carcinoma)
protocol_summary: combination Emax (second highest fraction inhibited in the dose matrix, 72 h); higher = more inhibition; extreme values may be limits of the assay
readout_kind: combination Emax

>>> result("Cc1c2c(nn1C)CSCc1cc(n(C)n1)CSc1cc(c3ccccc3c1)OCCCc1c(C(=O)O)n(C)c3c-2c(Cl)ccc13 [AZD5991] + C[C@@H](Nc1cc(F)cc(F)c1)c1cc(C(=O)N(C)C)cc2c(=O)cc(N3CCOCC3)oc12 [AZD8186] (first compound max 1 µM, 7x7, partner max 3 µM)")
0.362
>>> result("COc1cc2c(cc1OCCCCCOc1cc3c(cc1OC)C(=O)N1C=C(C)C[C@H]1C=N3)N=C[C@@H]1CC(C)=CN1C2=O [SG3199] + O=C(c1cc(Cc2n[nH]c(=O)c3ccccc23)ccc1F)N1CCN(C(=O)C2CC2)CC1 [Olaparib] (first compound max 0.001 µM, 7x7, partner max 10 µM)")
0.196

Which combination Emax value belongs to CN(CCO)CC[C@H](CSc1ccccc1)Nc1ccc(S(=O)(=O)NC(=O)c2ccc(N3CCC([C@@H](O)c4ccccc4-c4ccc(Cl)cc4)CC3)cc2)cc1S(=O)(=O)C(F)(F)F [AZD4320] + Nc1ccn([C@@H]2O[C@H](CO)[C@@H](O)C2(F)F)c(=O)n1 [Gemcitabine] (first compound max 1 µM, 7x7, partner max 0.3 µM) ? 0.688

* * *

Test system: HARA (Squamous Cell Lung Carcinoma);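 also: after 72 h of two-drug dosing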
protocol_summary: Bliss excess, mean over the matrix (fraction); higher = more synergy
Here, each record is paired with measured Bliss excess data.
Could you keep your reply to the number by itself?

See these solved cases before continuing.
>>> measured_number("COc1cccc(OCCCN)c1-c1cc(Nc2cnc(C#N)cn2)n[nH]1 [Prexasertib] + O=C(c1cc(Cc2n[nH]c(=O)c3ccccc23)ccc1F)N1CCN(C(=O)C2CC2)CC1 [Olaparib] (first compound max 1 µM, 7x7, partner max 10 µM)")
-0.0682
>>> measured_number("CN(CCO)CC[C@H](CSc1ccccc1)Nc1ccc(S(=O)(=O)NC(=O)c2ccc(N3CCC([C@@H](O)c4ccccc4-c4ccc(Cl)cc4)CC3)cc2)cc1S(=O)(=O)C(F)(F)F [AZD4320] + Nc1ccn([C@@H]2O[C@H](CO)[C@@H](O)C2(F)F)c(=O)n1 [Gemcitabine] (first compound max 1 µM, 7x7, partner max 0.3 µM)")
-0.0498
>>> measured_number("NC1(C(=O)N[C@@H](CCO)c2ccc(Cl)cc2)CCN(c2ncnc3[nH]ccc23)CC1 [Capivasertib] + CC(=O)c1c(C)c2cnc(Nc3ccc(N4CCNCC4)cn3)nc2n(C2CCCC2)c1=O [Palbociclib] (first compound max 10 µM, 7x7, partner max 10 µM)")
0.0388
>>> measured_number("O=C(c1cc(Cc2n[nH]c(=O)c3ccccc23)ccc1F)N1CCN(C(=O)C2CC2)CC1 [Olaparib] + CC1(C)CCC(CN2CCN(c3ccc(C(=O)NS(=O)(=O)c4ccc(NCC5CCOCC5)c([N+](=O)[O-])c4)c(Oc4cnc5[nH]ccc5c4)c3)CC2)=C(c2ccc(Cl)cc2)C1 [Venetoclax] (first compound max 10 µM, 7x7, partner max 1 µM)")
-0.0206
>>> measured_number("Cc1c2c(nn1C)CSCc1cc(n(C)n1)CSc1cc(c3ccccc3c1)OCCCc1c(C(=O)O)n(C)c3c-2c(Cl)ccc13 [AZD5991] + Nc1ccn([C@@H]2O[C@H](CO)[C@@H](O)C2(F)F)c(=O)n1 [Gemcitabine] (first compound max 1 µM, 7x7, partner max 0.3 µM)")
-0.0107
>>> measured_number("Cn1cnc2c(F)c(Nc3ccc(Br)cc3Cl)c(C(=O)NOCCO)cc21 [Selumetinib] + C=CCn1c(=O)c2cnc(Nc3ccc(N4CCN(C)CC4)cc3)nc2n1-c1cccc(C(C)(C)O)n1 [AZD1775] (first compound max 10 µM, partner max 1 µM)")
-0.0406

For the record Cc1cc2ncnn2cc1Nc1ncc2c(n1)n(C1CCOCC1)c(=O)n2C [AZD7648] + C=CCn1c(=O)c2cnc(Nc3ccc(N4CCN(C)CC4)cc3)nc2n1-c1cccc(C(C)(C)O)n1 [AZD1775] (first compound max 10 µM, partner max 1 µM) , what value of Bliss excess is listed for HARA (Squamous Cell Lung Carcinoma)? -0.0542
